Biological target: T1, importin α4 (IMPα4), Arabidopsis thaliana, recombinant (Arabidopsis thaliana, UniProt O80480 1-538, biotin (Biotin-PEG4-NHS ester Protein Labeling Kit) in the BLI experiments only)
T1 construct: importin alpha isoform 4 of Arabidopsis thaliana; gene isolated from A. thaliana, cloned into pETEV21a; Unlabelled in fluorescence polarisation; biotinylated and held on streptavidin tips in BLI; source: E. coli BL21pRARE, purified (Ni2+-IMAC)
T1 sequence (O80480 whole entry, canonical isoform): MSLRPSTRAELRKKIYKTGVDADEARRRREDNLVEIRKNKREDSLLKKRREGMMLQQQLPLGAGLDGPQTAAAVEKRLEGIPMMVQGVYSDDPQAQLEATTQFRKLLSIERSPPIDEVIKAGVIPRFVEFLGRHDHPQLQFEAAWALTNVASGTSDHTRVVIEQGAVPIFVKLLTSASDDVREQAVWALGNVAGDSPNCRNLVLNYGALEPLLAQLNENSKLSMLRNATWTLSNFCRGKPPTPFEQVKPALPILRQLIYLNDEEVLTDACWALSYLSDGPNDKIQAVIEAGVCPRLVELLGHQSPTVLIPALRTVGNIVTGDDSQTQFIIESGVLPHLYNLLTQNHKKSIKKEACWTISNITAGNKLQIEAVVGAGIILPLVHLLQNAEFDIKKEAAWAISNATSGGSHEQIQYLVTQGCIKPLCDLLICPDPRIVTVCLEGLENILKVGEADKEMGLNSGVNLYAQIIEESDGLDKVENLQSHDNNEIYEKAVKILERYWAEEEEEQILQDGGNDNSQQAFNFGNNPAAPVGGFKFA
Experiment: BLI; Octet K2; biotinylated ΔIBB_IMPα1 or IMPα4 loaded (15 μM, 600 s) on streptavidin biosensors; peptides/protein in solution; 100 mM Tris pH 7.0, 100 mM KCl, 0.01% Tween 20; room temperature; 300 s association, 300 s dissociation; dose response curves, 1:2 heterogeneous ligand model
Settings: both partners purified
Below is a list of entries, each paired with its recorded pKd value.
// returns pKd (minus log10 of molar concentration), number only

Query: Returns the measured pKd for the input binder. Input: KDVEMAISCRKGRTGTAAGDVAFPKGKENLASVLKRYKRRL (peptide, UniProt Q9S814 1229-1269, looked up, 41 residues; The methods speak of amidated C-termini and acetylated N-termini of 'the D-ri-peptides'; whether this holds for N41P-1 is not clear; also called extended EIN2‐NLS probe N41P‐1; source: synthetic peptide, bought: GenScript) [N41P‐1 (EIN2 residues 1229–1269)]
Reply: 5.01

Kindly review the next binder as well.
Query: Dear colleague, I am looking for the recorded pKd of the following binder: LKRYKRRL (8 residues; The methods speak of amidated C-termini and acetylated N-termini of 'the D-ri-peptides'; whether this holds for NOP-1 is not clear; also called EIN2‐NLS core motif; basic EIN2‐NLS probe; source: synthetic peptide, bought: GenScript) [NOP‐1 (EIN2 NLS peptide, EIN2 residues 1262–1269)]
Reply: 5.12
